Here, each record is paired with measured IC50 data.
# SYSTEM_NAME: GlyT1 (Homo sapiens)
# Construct: expressed in transfected cells
# Sequence (P48067 1-706): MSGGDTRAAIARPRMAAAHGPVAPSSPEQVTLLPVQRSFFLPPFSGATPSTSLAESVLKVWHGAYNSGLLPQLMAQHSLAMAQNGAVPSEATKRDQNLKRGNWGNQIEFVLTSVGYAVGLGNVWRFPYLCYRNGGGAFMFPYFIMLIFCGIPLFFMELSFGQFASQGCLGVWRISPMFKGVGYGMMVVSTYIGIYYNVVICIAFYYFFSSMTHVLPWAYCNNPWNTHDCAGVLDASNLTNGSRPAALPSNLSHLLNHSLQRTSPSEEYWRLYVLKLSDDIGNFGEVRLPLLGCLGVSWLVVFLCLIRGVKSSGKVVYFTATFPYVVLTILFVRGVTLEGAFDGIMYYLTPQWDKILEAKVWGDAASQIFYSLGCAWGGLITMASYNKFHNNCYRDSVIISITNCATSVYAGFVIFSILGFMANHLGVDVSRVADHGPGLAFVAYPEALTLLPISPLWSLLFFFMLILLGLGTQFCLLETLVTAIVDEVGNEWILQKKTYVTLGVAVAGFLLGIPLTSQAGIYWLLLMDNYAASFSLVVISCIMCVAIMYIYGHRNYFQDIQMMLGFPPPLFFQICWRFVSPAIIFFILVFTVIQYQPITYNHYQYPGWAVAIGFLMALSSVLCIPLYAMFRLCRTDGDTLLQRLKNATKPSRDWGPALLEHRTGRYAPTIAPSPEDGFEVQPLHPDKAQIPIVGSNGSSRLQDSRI
# RUN_DESCRIPTION: Glycine Transporter 1 (GlyT1) uptake assay, scintillation proximity assay of [14C]-glycine uptake
# Format: cell-based
# EXPERIMENTAL_SETUP: SPA, four parameter logistic fit, read-out: GlyT1 (pIC50) (converted)

CC(C)Cn1cc2c(n1)CN(C(=O)c1cc(S(C)(=O)=O)ccc1O[C@@H](C)C(F)(F)F)C2 = < 100 nM
C[C@H](Oc1ccc(C#N)cc1C(=O)N1Cc2cn(-c3ccc(F)cn3)nc2C1)C(F)(F)F = 100 to 1000 nM
COc1c(C#N)ccc(O[C@@H](C)C(F)(F)F)c1C(=O)N1Cc2cn(-c3cccc(C)n3)nc2C1 = < 100 nM
CCS(=O)(=O)c1ccc(-c2ccccc2)c(C(=O)N2Cc3cn(-c4cncc(F)c4)nc3C2)c1 = < 100 nM
COc1cc(-n2cc3c(n2)CN(C(=O)c2c(O[C@@H](C)C(F)(F)F)ccc(C#N)c2OC)C3)ccn1 = < 100 nM

# query: IC50 of entry `COc1c(C#N)ccc(OCC(F)F)c1C(=O)N1Cc2cn(-c3ccc(F)c(C)n3)nc2C1`
100 to 1000 nM

What do you get for `Cc1cc(-n2cc3c(n2)CN(C(=O)c2c(O[C@@H](C)C(F)(F)F)ccc(C#N)c2Cl)C3)ncc1F` ?
< 100 nM

What do you get for COc1c(C#N)ccc(OC(C)C(F)(F)F)c1C(=O)N1CCc2c(cnn2-c2ccc(F)cn2)C1 (stereo not shown) ?
< 100 nM

What do you get for CC(Oc1ccc(C#N)cc1C(=O)N1CCc2nn(-c3ccc(F)cc3)cc2C1)C(F)(F)F (stereo not shown) ?
1000 to 10000 nM

What do you get for CC(Oc1ccc(S(C)(=O)=O)cc1C(=O)N1Cc2cn(-c3ccc(F)cc3)nc2C1)C(F)(F)F (stereo not shown) ?
< 100 nM

What do you get for `Cc1cccc(-n2cc3c(n2)CN(C(=O)c2cc(S(=O)(=O)C(C)C)ccc2OC(C)C)C3)c1` ?
1000 to 10000 nM

What do you get for COc1c(S(C)(=O)=O)ccc(OC(C)C(F)(F)F)c1C(=O)N1CCc2nn(-c3ccc(F)cc3)cc2C1 (stereo not shown) ?
< 100 nM

What do you get for `CC1(COc2ccc(S(C)(=O)=O)cc2C(=O)N2Cc3cn(-c4ccc(F)cc4)nc3C2)COC1` ?
< 100 nM
